- ASSAY_NOTES: logP by HPLC (EEC-Directive 79/831 Annex V.A8)
- Assay type: physicochemical
- REPORTED_CONDITIONS: Physical data of Table 26
OBSERVED_PROPERTY: logP

compound="CCCNc1c(-c2cccc(Cl)c2)c(C)nn1-c1ncccn1 [Example 26-6]" result="logP = 3.37"
compound="Cc1nn(-c2ncccn2)c(NCc2ccccc2)c1-c1ccccc1Cl [Example 26-44]" result="logP = 3.37"

----------
- ASSAY_NOTES: logP by HPLC (EEC-Directive 79/831 Annex V.A8)
- Type: physicochemical
- REPORTED_CONDITIONS: by HPLC
OBSERVED_PROPERTY: logP (lgP), Physical data

compound_structure=FC(F)(F)c1cc(Cl)cc(-c2c(C(F)(F)F)nn(-c3ncccn3)c2I)c1 observed_property="logP (lgP), Physical data" result="lgP = 4.39"
compound_structure=FC(F)(F)c1nn(-c2ncccn2)c(I)c1-c1ccc(Cl)c(Cl)c1 observed_property="logP (lgP), Physical data" result="lgP = 4.39"

----------
- ASSAY_NOTES: logP by HPLC (EEC-Directive 79/831 Annex V.A8)
- Type: physicochemical
- REPORTED_CONDITIONS: Table 19, Physical data
OBSERVED_PROPERTY: lgP

compound_structure=N#Cc1ccnc(-n2nc(C(F)(F)F)c(-c3cc(Cl)cc(Cl)c3)c2N)n1 observed_property=lgP result="lgP = 3.84"
compound_structure=Cc1cnc(-n2nc(C(F)(F)F)c(-c3cc(F)cc(F)c3)c2N)nc1 observed_property=lgP result="lgP = 3.06"
compound_structure=Cc1ccnc(-n2nc(C(F)(F)F)c(-c3cccc(Br)c3)c2N)n1 observed_property=lgP result="lgP = 3.84"
compound_structure=Cc1ccnc(-n2nc(C(F)(F)F)c(-c3cc(F)cc(F)c3)c2N)n1 observed_property=lgP result="lgP = 3.06"
compound_structure=Cc1ccnc(-n2nc(C(F)(F)F)c(-c3ccc(Br)cc3F)c2N)n1 observed_property=lgP result="lgP = 3.28"
compound_structure=Cc1cnc(-n2nc(C(F)(F)F)c(-c3ccc(Br)cc3F)c2N)nc1 observed_property=lgP result="lgP = 3.28"

Endpoint output: lgP of Cc1cc(C)cc(-c2c(C(F)(F)F)nn(-c3nccc(C)n3)c2N)c1 . Value?
lgP = 3.42

What about Cc1cnc(-n2nc(C(F)(F)F)c(-c3cc(F)cc(Cl)c3)c2N)nc1 ?
lgP = 3.42
